Exercise: for every item that follows, state its recorded response.
B1: Arabidopsis thaliana AtSLY1 (yeast bait fusion) [Arabidopsis thaliana] / A. thaliana GAI (yeast prey fusion) [Arabidopsis thaliana] (parent complex)
chain 1: MKRSTTDSDLAGDAHNETNKKMKSTEEEEIGFSNLDENLVYEVLKHVDAKTLAMSSCVSKIWHKTAQDERLWELICTRHWTNIGCGQNQLRSVVLALGGFRRLHSLYLWPLSKPNPRARFGKDELKLTLSLLSIRYYEKMSFTKRPLPESK
chain 2: MKRDHHHHHHQDKKTMMMNEEDDGNGMDELLAVLGYKVRSSEMADVAQKLEQLEVMMSNVQEDDLSQLATETVHYNPAELYTWLDSMLTDLNPPSSNAEYDLKAIPGDAILNQFAIDSASSSNQGGGGDTYTTNKRLKCSNGVVETTTATAESTRHVVLVDSQENGVRLVHALLACAEAVQKENLTVAEALVKQIGFLAVSQIGAMRKVATYFAEALARRIYRLSPSQSPIDHSLSDTLQMHFYETCPYLKFAHFTANQAILEAFQGKKRVHVIDFSMSQGLQWPALMQALALRPGGPPVFRLTGIGPPAPDNFDYLHEVGCKLAHLAEAIHVEFEYRGFVANTLADLDASMLELRPSEIESVAVNSVFELHKLLGRPGAIDKVLGVVNQIKPEIFTVVEQESNHNSPIFLDRFTESLHYYSTLFDSLEGVPSGQDKVMSEVYLGKQICNVVACDGPDRVERHETLSQWRNRFGSAGFAAAHIGSNAFKQASMLLALFNGGEGYRVEESDGCLMLGWHTRPLIATSAWKLSTN

# Variants of: B1
# ASSAY PROCEDURE: yeast 2-hybrid; parent: 0.35; read off a plot

Provide response value for the following variant: chain 1 P114T
~34 β-galactosidase units

Provide response value for the following variant: chain 1 P114H
~77 β-galactosidase units

Provide response value for the following variant: chain 1 P114S
~55 β-galactosidase units

Provide response value for the following variant: chain 1 P114R
~94 β-galactosidase units

Provide response value for the following variant: chain 1 P114A
~89 β-galactosidase units

Provide response value for the following variant: chain 1 P114L
~63 β-galactosidase units
